Consider the following compounds and their measured melting point readings.

[
  {
    "SMILES_DATA": "Nc1nc(F)c(F)c2ncn([C@@H]3O[C@H](CO)[C@@H](O)[C@H]3O)c12",
    "RESULT": "155 to 157 °C"
  }
]

Item `Nc1nc(F)c(Cl)c2c1ncn2[C@@H]1O[C@H](CO)[C@@H](O)[C@H]1O` has what recorded melting point?
175 to 177 °C

Query (compound): `Nc1ncc(Cl)c2c1ncn2[C@@H]1O[C@H](CO)[C@@H](O)[C@H]1O` ; field requested: melting point
169 °C (dec.)

Reported melting point for `Nc1nc(F)cc2c1ncn2[C@H]1O[C@H](CO)[C@@H](O)[C@@H]1O` : what is it?
198 °C (dec.)

Any idea what its melting point is? The compound is `Nc1nc(F)c(Cl)c2ncn([C@@H]3O[C@H](CO)[C@@H](O)[C@H]3O)c12`
166 to 168 °C

melting point lookup needed for `Nc1nc(F)c(F)c2c1ncn2[C@@H]1O[C@H](CO)[C@@H](O)[C@H]1O` , thanks.
163 to 165 °C

---

- System: L1210 leukemia cells
- EXPERIMENT_DESCRIPTION: Cytotoxicity against L1210 leukemia cell line in vitro
- Type: cell-based
- RECORDED_CONDITIONS: Mus musculus, drug concentration required to inhibit cancer cell replication by 50%, tested up to 100 μM
- Procedure: The synthesized compounds were evaluated in vitro for their cytotoxicity against the L1210 and P388 leukemias, the CCRF-CEM lymphoblastic leukemia, and the B16F10 melanoma cell lines and the results are shown in Table 2.
MEASURED_ATTRIBUTE: pIC50
# reply with the number alone; pIC50 is -log10 of concentration in mol/L

Worked examples, 4 compounds total:
[
  {
    "SMILES_DATA": "Nc1[nH]c(=O)c2ncn([C@@H]3O[C@H](CO)[C@@H](O)[C@H]3O)c2c1Cl",
    "MEASURED_ATTRIBUTE": "pIC50",
    "NUMBER": 4.92
  },
  {
    "SMILES_DATA": "Nc1nc(F)c(Cl)c2c1ncn2[C@@H]1O[C@H](CO)[C@@H](O)[C@H]1O",
    "MEASURED_ATTRIBUTE": "pIC50",
    "NUMBER": 4.26
  },
  {
    "SMILES_DATA": "Nc1nc(F)cc2c1ncn2[C@@H]1O[C@H](CO)[C@@H](O)[C@H]1O",
    "MEASURED_ATTRIBUTE": "pIC50",
    "NUMBER": 4.46
  },
  {
    "SMILES_DATA": "Nc1nc(F)c(F)c2c1ncn2[C@@H]1O[C@H](CO)[C@@H](O)[C@H]1O",
    "MEASURED_ATTRIBUTE": "pIC50",
    "NUMBER": 4.05
  }
]

// returns reported pIC50 for input `Nc1[nH]c(=O)c2ncn([C@@H]3O[C@H](CO)[C@@H](O)[C@H]3O)c2c1Br`
5.52

---

Overview of recorded IC50 for various molecules
- System: L1210 leukemia cells
- EXPERIMENT_DESCRIPTION: Cytotoxicity against L1210 leukemia cell line in vitro
- Assay type: cell-based
- RECORDED_CONDITIONS: Mus musculus, drug concentration required to inhibit cancer cell replication by 50%, tested up to 100 μM

The cases that follow already have their IC50 on record.
[
  {
    "MOLECULE": "Nc1nc(F)cc2c1ncn2[C@H]1O[C@H](CO)[C@@H](O)[C@@H]1O [Compound 44]",
    "TARGET_OR_TEST_SYSTEM": "L1210 leukemia cells",
    "IC50": "> 100 µM"
  },
  {
    "MOLECULE": "Nc1ncc(Cl)c2c1ncn2[C@@H]1O[C@H](CO)[C@@H](O)[C@H]1O [Compound 52]",
    "TARGET_OR_TEST_SYSTEM": "L1210 leukemia cells",
    "IC50": "> 100 µM"
  }
]

Next molecule, please.
Quick check: IC50 on L1210 leukemia cells, item Nc1nc(F)cc2c1ncn2[C@@H]1O[C@H](CO)[C@@H](O)[C@@H]1O [Compound 43] ?
> 100 µM
